PROTOCOL_NOTES: Equilibrium fluorescence titration with Ni(II)
Format: binding
STATED_CONDITIONS: 1 µM apoprotein, 25 °C; read-out: Dissociation constant Kd, Ni(II)
A collection of molecules and their measured Kd

MOLECULE	Kd, µM
H191A ALKBH3: ALKBH3 mutant, His191 replaced with Ala (protein, UniProt Q96Q83 1-286, looked up, variant H191A) Alpha-ketoglutarate-dependent …: MEEKRRRARVQGAWAAPVKSQAIAQPATTAKSHLHQKPGQTWKNKEHHLSDREFVFKEPQQVVRRAPEPRVIDREGVYEISLSPTGVSRVCLYPGFVDVKEADWILEQLCQDVPWKQRTGIREDITYQQPRLTAWYGELPYTYSRITMEPNPHWHPVLRTLKNRIEENTGHTFNSLLCNLYRNEKDSVDWASDDEPSLGRCPIIASLSFGATRTFEMRKKPPPEENGDYTYVERVKIPLDHGTLLIMEGATQADWQHRVPKEYHSREPRVNLTFRTVYPDPRGAPW	50
L177A ALKBH3: ALKBH3 mutant, Leu177 replaced with Ala (protein, UniProt Q96Q83 1-286, looked up, variant L177A) Alpha-ketoglutarate-dependent …: MEEKRRRARVQGAWAAPVKSQAIAQPATTAKSHLHQKPGQTWKNKEHHLSDREFVFKEPQQVVRRAPEPRVIDREGVYEISLSPTGVSRVCLYPGFVDVKEADWILEQLCQDVPWKQRTGIREDITYQQPRLTAWYGELPYTYSRITMEPNPHWHPVLRTLKNRIEENTGHTFNSLACNLYRNEKDSVDWHSDDEPSLGRCPIIASLSFGATRTFEMRKKPPPEENGDYTYVERVKIPLDHGTLLIMEGATQADWQHRVPKEYHSREPRVNLTFRTVYPDPRGAPW	90
Y143A ALKBH3: ALKBH3 mutant, Tyr143 replaced with Ala (protein, UniProt Q96Q83 1-286, looked up, variant Y143A) Alpha-ketoglutarate-dependent …: MEEKRRRARVQGAWAAPVKSQAIAQPATTAKSHLHQKPGQTWKNKEHHLSDREFVFKEPQQVVRRAPEPRVIDREGVYEISLSPTGVSRVCLYPGFVDVKEADWILEQLCQDVPWKQRTGIREDITYQQPRLTAWYGELPYTASRITMEPNPHWHPVLRTLKNRIEENTGHTFNSLLCNLYRNEKDSVDWHSDDEPSLGRCPIIASLSFGATRTFEMRKKPPPEENGDYTYVERVKIPLDHGTLLIMEGATQADWQHRVPKEYHSREPRVNLTFRTVYPDPRGAPW	60

All figures here come from paper PMC10816986.
